// data source = patent US20170355757A1

# assayed.target: T1, human C5 R885H-mmh (human, UniProt P01031 19-1676)
# T1 construct: also called human C5 variant R885H
# experiment.summary: SPR, mAb captured via anti-hFc, 25C
# koff per record follows
Entry rule: numbers only, all in s⁻¹.

Solved cases below.
H4H12169P (antibody, human IgG4, V domains shown, Human IgG4 Fc with S108P hinge mutation (H4H)) VH: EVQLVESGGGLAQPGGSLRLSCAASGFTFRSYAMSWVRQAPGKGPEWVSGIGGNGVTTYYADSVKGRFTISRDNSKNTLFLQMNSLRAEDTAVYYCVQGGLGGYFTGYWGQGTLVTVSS VL: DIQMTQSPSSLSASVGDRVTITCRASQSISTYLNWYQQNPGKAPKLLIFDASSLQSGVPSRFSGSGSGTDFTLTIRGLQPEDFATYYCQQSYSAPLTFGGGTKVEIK: 7.09e-05
H4H12159P (antibody, human IgG4, V domains shown, Human IgG4 Fc with S108P hinge mutation (H4H)) VH: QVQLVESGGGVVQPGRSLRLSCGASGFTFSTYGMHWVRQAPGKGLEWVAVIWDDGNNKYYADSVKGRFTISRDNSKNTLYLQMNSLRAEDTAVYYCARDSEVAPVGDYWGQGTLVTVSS VL: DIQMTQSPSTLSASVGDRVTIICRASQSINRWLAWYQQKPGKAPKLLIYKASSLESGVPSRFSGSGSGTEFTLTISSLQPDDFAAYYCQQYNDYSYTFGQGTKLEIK: 0.000176

Now for the binder whose koff we want.
Ask: Could you tell me which koff is on file for H4H12164P (antibody, human IgG4, V domains shown, Human IgG4 Fc with S108P hinge mutation (H4H)) VH: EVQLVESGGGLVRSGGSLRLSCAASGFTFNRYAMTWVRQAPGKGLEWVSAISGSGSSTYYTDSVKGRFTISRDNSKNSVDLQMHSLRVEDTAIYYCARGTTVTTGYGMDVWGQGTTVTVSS VL: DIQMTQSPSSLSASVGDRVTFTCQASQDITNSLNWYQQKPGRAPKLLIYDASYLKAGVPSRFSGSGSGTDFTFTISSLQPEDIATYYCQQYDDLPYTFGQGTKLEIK ?
Result: 0.000187
